# PROTOCOL_SUMMARY: NCI Yeast Anticancer Drug Screen. Data for the rad50EPP+ strain (AID 151);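 also: 0% = growth of vehicle-treated control cultures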
# CONDITION_LABEL: S. cerevisiae rad50 mutant strain, at 1.2 µM, active compounds read high
About 79,000 compounds went through this panel and 15% of them were active in at least one assay; those are over-represented in the sample as a whole.
MEASUREMENT_KIND: growth inhibition (%)
Value expressed in %; do not type the unit.

Qu. Form field: reported growth inhibition of C/C(=N\NC(=S)SCc1ccccc1)c1ccccn1
Ans. 40

Qu. Form field: reported growth inhibition of O=C(OCC=C1CCCC1)c1cc([N+](=O)[O-])cc([N+](=O)[O-])c1
Ans. 3

Qu. Form field: reported growth inhibition of CC(C)/C(Cl)=N\OC(=O)Nc1ccc(F)cc1
Ans. 1

Qu. Form field: reported growth inhibition of CC(=O)Cc1ccc[cH-]1.[Fe+2].c1cc[cH-]c1
Ans. 3

Qu. Form field: reported growth inhibition of O=Cc1cccc2ccc3ccccc3c12
Ans. 5

Qu. Form field: reported growth inhibition of O=C([O][Sn]([O]C(=O)c1ccccc1)([c]1ccccc1)[c]1ccccc1)c1ccccc1
Ans. 30

* * *

# PROTOCOL_SUMMARY: NCI Yeast Anticancer Drug Screen. Data for the mlh1 strain (AID 171);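 also: 0% = growth of vehicle-treated control cultures of the same strain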
# CONDITION_LABEL: S. cerevisiae mlh1 strain growth inhibition; at 100.0 µM; active compounds read high
Compounds without any hit were thinned out: in the full panel of roughly 79,000, 15% have a hit.
Reported growth inhibition values for a set of compounds
Value expressed in %; do not type the unit.

Here is how some compounds turned out for growth inhibition.
>>> value("Cc1ccc(NN(NC(=O)OC(C)C)C(=O)OC(C)C)cc1")
8
>>> value("CC(C)/C(Cl)=N\\OC(=O)Nc1ccccc1F")
20
>>> value("O=C(c1ccc(Cl)cc1)C1OC12C(=O)Nc1ccccc12 (configuration not stated)")
99

Qu. Form field: reported growth inhibition of CC(C(=O)N1C(=O)N(C(=O)[C@H](C)C(O)c2ccccc2)[C@H](c2ccccc2)[C@H]1c1ccccc1)[C@@H](O)c1ccccc1 (some centres not stated)
Ans. 57

Qu. Form field: reported growth inhibition of Cc1ccc2ccc3cccc4ccc1c2c34
Ans. 30

Qu. Form field: reported growth inhibition of O=C1CSc2cc([N+](=O)[O-])ccc2N1
Ans. -22

Qu. Form field: reported growth inhibition of CCCCCCCCCCCCCCCCCCNC
Ans. 70

Qu. Form field: reported growth inhibition of Cc1ccc(S(=O)(=O)NCCSS(=O)(=O)c2ccc(C)cc2)cc1
Ans. 94

Qu. Form field: reported growth inhibition of CCCCOC(=O)N[C@H]1CCc2cc(OC)c(OC)c(OC)c2-c2ccc(SC)c(=O)cc21
Ans. 90

Qu. Form field: reported growth inhibition of Cc1cc(N=Nc2ccc(S(=O)(=O)[O-])cc2)cc(C(=O)[O-])c1[O-].NC1CCCCC1N.[Na+].[Pt+4]
Ans. 98

Qu. Form field: reported growth inhibition of Cc1ccc2[nH]c3c(C)c4cc[n+](C)cc4c(C)c3c2c1
Ans. 94

* * *

# PROTOCOL_SUMMARY: NCI Yeast Anticancer Drug Screen. Data for the rad50EPP+ strain (AID 151);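 also: 0% = growth of vehicle-treated control cultures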
# CONDITION_LABEL: S. cerevisiae rad50 mutant strain, at 1.2 µM, active compounds read high
About 79,000 compounds went through this panel and 15% of them were active in at least one assay; those are over-represented in the sample as a whole.
MEASUREMENT_KIND: growth inhibition (%)
Value expressed in %; do not type the unit.

Here is how some compounds turned out for growth inhibition.
>>> value("COc1cc2ccc(/C=C\\[N+](=O)[O-])cc2cc1OC")
18
>>> value("NC(=O)NN=C(CS)CS")
-2
>>> value("O=C1c2ccccc2-c2nc3ccccc3nc21")
3

Qu. Form field: reported growth inhibition of CCN(CC)[P+](c1ccccc1O)(N(CC)CC)N(CC)CC
Ans. -35

Qu. Form field: reported growth inhibition of COc1ccccc1N=NC(C(=O)c1ccccc1)C(=O)c1ccccc1
Ans. -47

Qu. Form field: reported growth inhibition of NNc1c(F)c(F)cc(F)c1F
Ans. 2

Qu. Form field: reported growth inhibition of O=[N+]([O-])C(=C(Sc1ccccc1)Sc1ccccc1)C(Cl)=C(Cl)Cl
Ans. 9

Qu. Form field: reported growth inhibition of Cn1c(=O)c(-c2ccccc2)c(N=[N+]=[N-])c2ccccc21
Ans. -15

Measured values drawn from PubChem BioAssay (NCI) for this set.
